Origin of the recorded values: patent US8895695B2

System: human red blood cells (hRBC)
Experiment: Hemolysis
Format: cell-based
Bridge positions count the residues as written; N and C are the ends. Square brackets hold non-standard residues; d marks the D form. Peptide text beside a SMILES is read from it. 2Nal = N[C@@H](Cc1ccc2ccccc2c1)C(=O)O; Cit = NC(=O)NCCC[C@H](N)C(=O)O; Orn = NCCC[C@H](N)C(=O)O
quantity-name: Hemolysis at 100 μM (%)
Answer in %, number only, no unit symbol.

N=C(N)NCCC[C@@H]1NC(=O)[C@@H]2CSSC[C@H](NC(=O)[C@H](Cc3c[nH]c4ccccc34)NC(=O)[C@H](CCCN)NC(=O)[C@H](CCCNC(=N)N)NC(=O)[C@H]3CCCN3C(=O)CNC1=O)C(=O)N[C@@H](Cc1ccc(O)cc1)C(=O)N[C@@H](CCCNC(N)=O)C(=O)N[C@@H](CCCCN)C(=O)N1CCC[C@@H]1C(=O)N1CCC[C@H]1C(=O)N[C@@H](Cc1ccc(O)cc1)C(=O)N[C@@H](CCCNC(=N)N)C(=O)N[C@@H](CCCNC(N)=O)C(=O)N2 [Ex. 117] (cyclo(YR[Cit]CRG[dP]R[Orn]WCY[Cit]K[dP]P); disulfide 4-11) ... 0

Request: Value wanted: Hemolysis at 100 μM (human red blood cells (hRBC)) of entry N=C(N)NCCC[C@@H]1NC(=O)[C@@H]2CSSC[C@H](NC(=O)[C@H](Cc3ccc(O)cc3)NC(=O)[C@H](CCCNC(=N)N)NC(=O)[C@H](CCCNC(=N)N)NC(=O)[C@H]3CCCN3C(=O)CNC1=O)C(=O)N[C@@H](CCCNC(N)=O)C(=O)N[C@@H](Cc1ccc(O)cc1)C(=O)N[C@@H](CCCCN)C(=O)N1CCC[C@@H]1C(=O)N1CCC[C@H]1C(=O)N[C@@H](Cc1ccc(O)cc1)C(=O)N[C@@H](CCCNC(=N)N)C(=O)N[C@@H](CCCNC(N)=O)C(=O)N2 [Ex. 113] (cyclo(YR[Cit]CRG[dP]RRYC[Cit]YK[dP]P); disulfide 4-11)
Result: 0

Request: Query the reported Hemolysis at 100 μM for human red blood cells (hRBC); item: CC(C)[C@@H]1NC(=O)[C@H](CCCNC(N)=O)NC(=O)[C@H](CCCNC(=N)N)NC(=O)[C@H](Cc2ccc(O)cc2)NC(=O)[C@@H]2CCCN2C(=O)[C@H]2CCCN2C(=O)[C@H](CCCCN)NC(=O)[C@H](CCCNC(N)=O)NC(=O)[C@H](Cc2ccc(O)cc2)NC(=O)[C@H](Cc2ccccc2)NC(=O)[C@H](Cc2ccc3ccccc3c2)NC(=O)[C@H](CCCNC(=N)N)NC(=O)[C@H](CCCNC(=N)N)NC(=O)[C@H]2CCCN2C(=O)[C@H](C(C)C)NC(=O)[C@H](CCCNC(=N)N)NC1=O [compound 32] (cyclo(YR[Cit]VRV[dP]RR[2Nal]FY[Cit]K[dP]P))
Result: 0.5

Request: Provide the documented Hemolysis at 100 μM with human red blood cells (hRBC) as the system for N=C(N)NCCC[C@@H]1NC(=O)[C@@H]2CSSC[C@H](NC(=O)[C@H](Cc3ccc4ccccc4c3)NC(=O)[C@H](CCCNC(=N)N)NC(=O)[C@H](CCCNC(=N)N)NC(=O)[C@H]3CCCN3C(=O)CNC1=O)C(=O)N[C@@H](Cc1ccc(O)cc1)C(=O)N[C@@H](CCC(N)=O)C(=O)N[C@@H](CCCCN)C(=O)N1CCC[C@@H]1C(=O)N1CCC[C@H]1C(=O)N[C@@H](Cc1ccc(O)cc1)C(=O)N[C@@H](CCCNC(=N)N)C(=O)N[C@@H](Cc1c[nH]c3ccccc13)C(=O)N2 [Ex. 73] (cyclo(YRWCRG[dP]RR[2Nal]CYQK[dP]P); disulfide 4-11)
Result: 0.3
